What Kd was measured for each of the following?
experimental-system: SARS-COV-2 RBD extracellular domain expressed with a C-terminal mouse IgG2a Fc (SARS-CoV-2)
measurement-notes: Biacore SPR, mAb captured on anti-hFc, 25 C
Write the figure, then the unit, nothing else.

Tell me measured Kd for mAb14234 (antibody, V domains shown) VH: QVQLVESGGGVVQPGRSLRLSCAASGFTFSSYGIHWVRQAPGKGLEWVAIIWYDGSEKYYADSVKGRFTISRDNSKNTLFLQMNSLEAEDTAVYYCARGPDLLTGYYNYFYYGMDVWGQGTTVTVSS VL: QSVLTQPPSVSGAPGQRVTISCTGSSSNIGIGYDVHWYQQLPGTVPKLLIYGNTNRPSGVPDRFSGSKSGTSASLAITGLQAEDEADYYCQSYDSSLSSYVFGTGTKVTVLG please.
119 pM

Tell me measured Kd for mAb14283 (antibody, V domains shown) VH: QVQLQESGPGLVKPSGTLSLTCDVSGGSISSNNWWSWVRQRPGKGLQWIGEIYHNENTNYNPSLKSRVIMSIDKSKNQFSLKLTSVTAADTAVYYCARGDVLDWFDPWGQGTLVTVSS VL: QSALTQPASVSGSPGQSTTISCTGTSSDVGGYNYVSWYQQYPGKAPKLMIYDVTNRPSGVSHRFSGSKSGNTASLTISGLQAEDEADYYCSSYTSSSTVIFGGGTKLTVLG please.
52.4 pM
